Target: Kappa-type opioid receptor (Homo sapiens)
Sequence (P41145 whole entry): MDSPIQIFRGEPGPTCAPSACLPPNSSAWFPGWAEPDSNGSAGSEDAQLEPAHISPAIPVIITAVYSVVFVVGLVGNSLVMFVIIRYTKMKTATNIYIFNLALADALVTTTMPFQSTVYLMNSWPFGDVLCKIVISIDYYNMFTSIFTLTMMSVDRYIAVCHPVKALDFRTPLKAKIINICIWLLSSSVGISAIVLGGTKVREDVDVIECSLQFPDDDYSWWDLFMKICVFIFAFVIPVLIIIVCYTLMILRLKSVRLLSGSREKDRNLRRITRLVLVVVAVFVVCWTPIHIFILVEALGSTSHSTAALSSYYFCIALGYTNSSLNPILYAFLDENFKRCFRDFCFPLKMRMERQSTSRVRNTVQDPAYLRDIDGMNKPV
Square brackets hold non-standard residues; d marks the D form. Peptide text beside a SMILES is read from it.
Overview of reported Ki across a group of molecules:
PARAMETER_MEASURED: Ki (nM)

MOLECULE	PARAMETER_MEASURED	MEAS_VALUE
CC(=O)N[C@@H](Cc1ccc(O)cc1)C(=O)N[C@@H](CCCCN)C(=O)N[C@@H](Cc1c[nH]c2ccccc12)C(=O)N[C@@H](Cc1c[nH]c2ccccc12)C(=O)N[C@@H](CC(C)C)C(=O)N[C@@H](CCCN=C(N)N)C(=O)N[C@@H](CCCN=C(N)N)C(=O)N[C@H](C)C(=O)N[C@@H](CCCN=C(N)N)C(=O)N1CCC[C@H]1C(=O)N[C@@H](CCCCN)C(N)=O (Ac-YKWWLRR[dA]RPK-NH2)	Ki	19.8
CC(C)C[C@H](NC(=O)[C@H](Cc1ccccc1)NC(=O)CNC(=O)CNC(=O)[C@@H](N)Cc1ccc(O)cc1)C(=O)N[C@@H](CCCN=C(N)N)C(=O)N[C@@H](CCCN=C(N)N)C(=O)N[C@H](C)C(=O)N[C@@H](CCCN=C(N)N)C(=O)N1CCC[C@H]1C(=O)N[C@@H](CCCCN)C(N)=O	Ki	0.19
CC(=O)N[C@@H](Cc1ccc(O)cc1)C(=O)N[C@@H](CCCCN)C(=O)N[C@@H](Cc1c[nH]c2ccccc12)C(=O)N[C@@H](Cc1c[nH]c2ccccc12)C(N)=O (Ac-YKWW-NH2)	Ki	1370

FYI, the data here is from ChEMBL document CHEMBL1132332.
